Experiment: Comparative tests for stability of the crystalline form E and other crystalline forms (storage, total impurity and content)
Format: physicochemical
Conditions: Refrigerating 6° C., month 12
Text: Comparative tests for stability of the crystalline form E and other crystalline forms. […]
Quantity: Content (%)
Supply the numeric figure in %, leaving out any unit text.

Illustrative cases are given below, each with its answer.
molecule="C[C@@H](O)[C@H]1C(=O)N2C(C(=O)[O-])=C(S[C@@H]3CN[C@H](C(=O)Nc4cccc(C(=O)O)c4)C3)[C@H](C)[C@H]12.[Na+] [Amorphous, ertapenem sodium]" quantity=Content quantity_unit=% measurement=90.1
molecule="C[C@@H](O)[C@H]1C(=O)N2C(C(=O)[O-])=C(S[C@@H]3CN[C@H](C(=O)Nc4cccc(C(=O)O)c4)C3)[C@H](C)[C@H]12.[Na+] [Crystalline form D, ertapenem sodium]" quantity=Content quantity_unit=% measurement=93.2

Ask: What value of Content has been recorded for this entry: C[C@@H](O)[C@H]1C(=O)N2C(C(=O)[O-])=C(S[C@@H]3CN[C@H](C(=O)Nc4cccc(C(=O)O)c4)C3)[C@H](C)[C@H]12.[Na+] (relative stereo) [Crystalline form E]
Result: 96.8

Ask: What value of Content has been recorded for this entry: C[C@@H](O)[C@H]1C(=O)N2C(C(=O)[O-])=C(S[C@@H]3CN[C@H](C(=O)Nc4cccc(C(=O)O)c4)C3)[C@H](C)[C@H]12.[Na+] [Crystalline form C, ertapenem sodium]
Result: 96.9

Ask: What value of Content has been recorded for this entry: C[C@@H](O)[C@H]1C(=O)N2C(C(=O)[O-])=C(S[C@@H]3CN[C@H](C(=O)Nc4cccc(C(=O)O)c4)C3)[C@H](C)[C@H]12.[Na+] [Crystalline form B, ertapenem sodium]
Result: 96.6

Ask: What value of Content has been recorded for this entry: C[C@@H](O)[C@H]1C(=O)N2C(C(=O)[O-])=C(S[C@@H]3CN[C@H](C(=O)Nc4cccc(C(=O)O)c4)C3)[C@H](C)[C@H]12.[Na+] [Crystalline form A, ertapenem sodium]
Result: 96.9
